measured on: Aldehyde dehydrogenase 1A1 (Homo sapiens)
assay comment: qHTS Assay for Inhibitors of Aldehyde Dehydrogenase 1 (ALDH1A1)
experimental setup: Purified ALDH1A1, NADH fluorescence, propionaldehyde substrate; series mostly up to 75.3 µM
In all, about 220,000 compounds went through this assay and about 16,000 (7.3%) were called active. Another 25% or so got no clear call; they are omitted. Calls come from the whole dose curve; as a rule, active = well fitted inhibition curve with a large enough effect (not every such curve was filed as active); inconclusive = small, poorly fitted or top-dose-only effect, or another doubt; inactive = no such curve, though single readings can be large or run the other way. The full list was thinned out, with actives kept by preference.
Hello, when you answer, please use one of the following outcomes: active, inactive

Task item: Hi, sorry to bother you, what did the test record for O=C(Nc1ccccc1)c1cc2ccccc2[nH]1 ?
Reply: inactive

Task item: Given O=C(CN1C(=O)COc2ccccc21)Nc1ccc(F)cc1 , state the outcome it received in this test.
Reply: active

Task item: I'd appreciate the recorded outcome for O=S(=O)(c1ccccc1)c1nc(-c2ccccc2F)oc1NCc1cccnc1 from this test.
Reply: inactive

Task item: Hello, I am checking results. What call was entered for CC(C)(C)c1ccc(C(=O)CSc2ncn[nH]2)cc1 ?
Reply: active

Task item: In this assay, the call recorded for COC(=O)Cc1ccc(NC(=S)NCc2ccccc2)cc1 was what?
Reply: inactive

Task item: Test call for this compound, please: CCC(C)NC(=O)CCCc1ccccc1 (stereo unspecified)
Reply: inactive

Task item: Given O=C(CN1CCN(c2ccc(O)cc2)CC1)NC1CCCc2ccccc21 (stereo unspecified) , state the outcome it received in this test.
Reply: active

Task item: What did this assay record as the result for CCCCn1nc(C(=O)Nc2ccc(S(=O)(=O)Nc3ncccn3)cc2)c2ccccc2c1=O ?
Reply: inactive

Task item: Field: outcome | Entry: CC(C)(C)n1nnnc1C(c1ccc(F)cc1)N1CCN(Cc2ccc3c(c2)OCO3)CC1 (stereo unspecified)
Reply: inactive

Task item: Per the assay record, what outcome was assigned to COc1ccccc1NC(=O)/C=C/C(=O)O ?
Reply: inactive

Task item: # outcome recorded in this test, key = COc1cc(NC(=O)COc2ccccc2Cl)ccc1NC(=O)C(C)C
Reply: inactive

Task item: Write down the call the test reported for this compound. Item: Cc1cc(C)nc(NC(=O)/C=C/c2ccc(Cl)cc2)n1
Reply: inactive

Task item: Hey, what did the test say about O=C(COC(=O)c1ccc(F)cc1)Nc1nc2ccc([N+](=O)[O-])cc2s1 ?
Reply: inactive

Task item: Short answer needed: outcome of this test for COc1cccc2c(N/N=C/c3ccco3)cc(C)nc12 ?
Reply: inactive

Task item: So what was the verdict on Clc1ccc(-c2csc(-c3ccncc3)n2)cc1 in this test?
Reply: inactive

Task item: Look up the recorded call for CN(C)S(=O)(=O)c1cccc(NC(=O)COC(=O)c2cc(=O)[nH]c(=O)[nH]2)c1 in this test.
Reply: inactive

Task item: Entry O=C(COc1ccc(S(=O)(=O)N2CCCCC2)cc1)NCc1ccccn1 : call = ?
Reply: inactive

Task item: Per the assay record, what outcome was assigned to C=C(C)CNC(=S)Nc1ccc(S(=O)(=O)Nc2cnc3ccccc3n2)cc1 ?
Reply: inactive

Task item: Record request — test call for CCOC(=O)C(NC(C)=O)C(=O)Nc1ccc(OC)cc1 (stereo unspecified)
Reply: inactive

Task item: Hi team, can someone confirm the assay call for OCC1(CCOc2ccccc2)CCN(Cc2cn[nH]c2-c2ccccc2)CC1 ?
Reply: inactive

Task item: Assay result, entry CC(=O)Nc1ccc(Nc2nc3c(S(=O)(=O)c4ccc(C)c(C)c4)nnn3c3ccccc23)cc1 — outcome?
Reply: inactive

Task item: Dear all, I need the recorded test outcome for Cn1nnc(NC(=O)CSc2ncn[nH]2)n1 , thank you.
Reply: inactive

Task item: Which outcome was entered for the compound CC(=O)c1cc(C#N)c(N2CC(C)OC(C)C2)nc1C (stereo unspecified) in this test?
Reply: inactive

Task item: For this compound, state the assay outcome: C/C=C(/C)C(=O)OC1Cc2c(ccc3ccc(=O)oc23)OC1(C)C (stereo unspecified)
Reply: inactive

Task item: Just curious, what result did CCCCC/C=C\C/C=C\C/C=C\CCCCCCC(N)=O get here?
Reply: inactive

Task item: Which outcome was assigned to CCCC(c1nnnn1C(C)(C)C)N1CCN(Cc2ccccc2)CC1 (stereo unspecified) in this test?
Reply: inactive

Task item: How was O=C(CCN1C(=O)COc2ccccc21)NCCCN1CCN(c2ccc(F)cc2)CC1 classified in this test?
Reply: inactive

Task item: Can you look up the reported call for COc1ccccc1C(c1nnnn1C(C)(C)C)N1CCN(Cc2ccccc2)CC1 (stereo unspecified) for me?
Reply: active

Task item: Dear all, I need the recorded test outcome for CC(C)Oc1ccc(CC(=O)NNC(=S)Nc2ccc(Br)cc2)cc1 , thank you.
Reply: active

Task item: Hi, do you know how Cc1ccc(N(C(=O)Cc2cccs2)C2C=CS(=O)(=O)C2)cc1Cl (stereo unspecified) came out in this test?
Reply: inactive

Task item: Recorded test outcome, item CC(C)(O)C(=O)NN(C(=O)c1ccccc1)c1cccc(Br)c1
Reply: inactive

Task item: Just curious, what result did CN(C(=O)COc1ncnc2c1cnn2-c1ccccc1)C1CCCCC1 get here?
Reply: inactive

Task item: Returns: the outcome recorded for O=C(CCC(=O)N1CCN(S(=O)(=O)c2ccccc2)CC1)NC1CCCc2ccccc21 (stereo unspecified) in this assay.
Reply: inactive

Task item: Which outcome was assigned to O=C(c1ccc(F)cc1)C1CCN(Cc2cn[nH]c2-c2ccccc2)CC1 in this test?
Reply: inactive

Task item: // return assay outcome for COc1ccccc1NC(=O)/C=C/C(N)=O
Reply: active

Task item: For CCOC(=O)CSc1nc2c(sc(=S)n2CCc2ccccc2)c(=O)n1Cc1ccco1 , what call appears in the results of this test?
Reply: active

Task item: Recorded call for C/C(=N/Nc1ccc(Cl)cc1)c1cnnc(-c2ccccc2)n1 ?
Reply: inactive

Task item: Give the logged outcome of this assay for the following compound: COc1ccc(C(=O)CSc2nccc(=O)[nH]2)cc1
Reply: inactive

Task item: Assay outcome for Cc1c(CCO)sc[n+]1CC(=O)OC12CC3CC(CC(C3)C1)C2 : what was it?
Reply: inactive

Task item: Tell me the assay call for O=C(CSc1nncs1)NC1CCCc2ccccc21 (stereo unspecified) please.
Reply: inactive

Task item: Could you please tell me the result logged for COc1ccc(-c2[nH]ncc2CN(C)Cc2c(C)n[nH]c2C)c(OC)c1 in this assay?
Reply: inactive

Task item: Identify the outcome logged in this assay for the compound shown: COc1cc2c(cc1OC)CC1(CCCCC1)N=C2
Reply: inactive

Task item: Outcome logged for CC1(C)Oc2ccc3ccc(=O)oc3c2/C(=C/NCCO)C1=O in this assay:
Reply: active

Task item: # fetch the recorded call for Nc1[nH][nH]c(=O)c1N=Nc1ccc2c(c1)OCO2 here
Reply: inactive

Task item: What did the test return for CN(CCC1CCOCC1)Cc1cn[nH]c1-c1ccc(-c2ccccc2)cc1 ?
Reply: active

Task item: Hey, what did the test say about CC/C=C/C/C=C/C/C=C/CCCCCCCC(=O)OCC ?
Reply: active
